- tested target: Neurotensin receptor type 2 (Homo sapiens)
- measurement notes: beta-arrestin recruitment via NTR2 activation – imaging, NTR2-U2OS cells, beta-arrestin GFP imaging, selectivity assay for NTR1 agonist project, SAR follow-up (AID 588495)
- test conditions: image-based GFP translocation
The source made the active and inactive calls.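 The calls were made as follows: active = mean EC50 of 20 µM or lower; inactive = the rest.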
Mark one answer only. Choices: active, inactive

{"columns": ["smiles text", "group label"],
 "data": [
  ["COc1ccc(Cn2c(SCc3ccccc3C)nc3cc(OC)c(OC)cc3c2=N)cc1Cl", "inactive"],
  ["COc1cc2nc(-c3ccccc3)nc(N3CCN(c4ccc(F)cc4)CC3)c2cc1OC", "inactive"]
]}

Ask | Call for entry COc1cc2ncnc(N3CCN(c4ccccc4OC)CC3)c2cc1OC :
Reply | inactive

Ask | Check the results log: what was the call for Cc1ccc(-n2ncc3c(N4CCN(c5ccc(F)cc5)CC4)ncnc32)c(C)c1 ?
Reply | inactive

Ask | Please indicate how the test categorized CC(C)C[C@H](NC(=O)c1cn(-c2ccnc3cc(Cl)ccc23)c(-c2c(Cl)cccc2Cl)n1)C(=O)O .
Reply | inactive

Ask | I'd appreciate the recorded outcome for c1ccc(N2CCN(c3ncnc4c3cnn4-c3ccccc3)CC2)cc1 from this test.
Reply | inactive

Ask | Tell me the assay call for COc1cc2c3nnc(-c4ccccc4)c-3cn(Cc3ccc(C)cc3)c2cc1OC please.
Reply | inactive

* * *

- tested target: Neurotensin receptor type 2 (Homo sapiens) (UniProt O95665)
- Sequence (O95665 whole entry, looked up): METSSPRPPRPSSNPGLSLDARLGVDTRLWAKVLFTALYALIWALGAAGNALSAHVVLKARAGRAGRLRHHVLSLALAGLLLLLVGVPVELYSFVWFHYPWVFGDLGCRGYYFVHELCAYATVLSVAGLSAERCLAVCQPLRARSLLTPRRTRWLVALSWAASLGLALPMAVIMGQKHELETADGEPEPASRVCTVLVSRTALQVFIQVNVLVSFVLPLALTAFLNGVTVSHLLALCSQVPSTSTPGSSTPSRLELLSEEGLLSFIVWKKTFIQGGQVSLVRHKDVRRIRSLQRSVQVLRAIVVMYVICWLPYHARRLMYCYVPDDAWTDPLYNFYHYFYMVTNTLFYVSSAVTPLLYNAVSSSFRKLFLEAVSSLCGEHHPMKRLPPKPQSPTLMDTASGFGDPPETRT
- measurement notes: beta-arrestin recruitment via NTR2 activation – imaging, NTR2-U2OS cells, beta-arrestin GFP imaging, selectivity assay for NTR1 agonist project, SAR follow-up (AID 588495)
- test conditions: image-based GFP translocation
Calls of active or inactive are those of the source.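 Rule for the calls: active = mean EC50 of 20 µM or lower; inactive = the rest.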
Pick one and only one: yes (1) = active, no (0) = inactive

Example entries begin here.
{"columns": ["smiles text", "group label"],
 "data": [
  ["Cc1cc(Cl)ccc1-n1ncc2c(N3CCN(c4ccccc4)CC3)ncnc21", "no (0)"],
  ["COc1ccccc1-c1nc(C(=O)N[C@@H](CC(C)C)C(=O)O)cn1-c1ccnc2cc(Cl)ccc12", "no (0)"],
  ["COc1ccc(N2CCN(c3nc(C4CCC4)nc4cc(OC)c(OC)cc34)CC2)cc1", "no (0)"],
  ["COc1cc2c3nnc(-c4ccc(C)cc4)c-3cn(Cc3ccc(F)cc3)c2cc1OC", "yes (1)"]
]}

Next, consider the following compound.
Ask | What classification did COc1cc2nc(-c3ccccc3)nc(N3CCN(c4ccccc4OC)CC3)c2cc1OC end up with in this test?
Reply | no (0)

* * *

Entries and their measured EC50 follow.
- tested target: Neurotensin receptor type 2 (Homo sapiens) (UniProt O95665)
- measurement notes: beta-arrestin recruitment via NTR2 activation – imaging, NTR2-U2OS cells, beta-arrestin GFP imaging, selectivity assay for NTR1 agonist project, SAR follow-up (AID 588495)
- test conditions: image-based GFP translocation
Active and inactive are the calls of the source.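 The calls were made as follows: active = mean EC50 of 20 µM or lower; inactive = the rest.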

{"columns": ["smiles text", "EC50"],
 "data": [
  ["CCOc1ccc(-c2nnc3c4cc(OC)c(OC)cc4n(Cc4ccc(C)cc4)cc2-3)cc1", "> 40 µM (inactive)"],
  ["COc1cccc2c(C(=O)N[C@@H](CC(C)C)C(=O)O)cn(-c3ccnc4cc(Cl)ccc34)c12", "> 40 µM (inactive)"],
  ["Cc1ccc(/C=N/Nc2nc(-c3ccc(S(=O)(=O)N(C)C)cc3)cs2)cc1", "> 40 µM (inactive)"],
  ["COc1cc2c3nnc(-c4ccc(C)c(C)c4)c-3cn(Cc3ccc(F)cc3)c2cc1OC", "4.38 µM"]
]}

In plain terms, CN(C)S(=O)(=O)c1ccc(-c2csc(N/N=C/c3cccc(Cl)c3)n2)cc1 has a documented EC50 of > 40 µM (inactive)

Entry COc1cc2nc(C3CCC3)nc(N3CCN(c4ccccc4Cl)CC3)c2cc1OC ; EC50 = > 40 µM (inactive)

For record O=S(=O)(c1ccc(-c2csc(N/N=C/c3ccco3)n2)cc1)N1CCOCC1 the listed EC50 is > 40 µM (inactive)

Measured EC50, Cc1ccc(-n2ncc3c(N4CCN(c5ccccc5F)CC4)ncnc32)c(C)c1 : > 40 µM (inactive)

COc1cc2c3nnc(-c4ccc(F)cc4)c-3cn(Cc3ccc(F)cc3)c2cc1OC has a reported EC50 of 9.69 µM

The recorded EC50 for CCc1ccc(-c2nnc3c4cc(OC)c(OC)cc4n(Cc4ccccc4)cc2-3)cc1 is > 40 µM (inactive)

EC50 for COc1cccc(OC)c1-c1nc(C(=O)N[C@@H](CC(C)C)C(=O)O)cn1-c1ccc(C)cc1 is > 40 µM (inactive)

Lab book: EC50 of Cc1ccc(-n2ncc3c(N4CCN(c5ccccc5)CC4)ncnc32)cc1C noted as > 40 µM (inactive)

O=S(=O)(c1ccc(-c2csc(N/N=C/c3ccco3)n2)cc1)N1CCCC1 yielded EC50 of > 40 µM (inactive)

GET /value?item= CC(C)C[C@H](NC(=O)c1cn(-c2ccncc2)c(-c2ccccc2)n1)C(=O)O &field=EC50 returns > 40 µM (inactive)

The compound COc1ccccc1-c1nc(C(=O)N[C@@H](CC(C)C)C(=O)O)cn1-c1ccncc1 showed EC50 equal to > 40 µM (inactive)

Sure, the documented EC50 for COc1cc2c3nnc(-c4ccc(Cl)cc4)c-3cn(Cc3ccc(C)cc3)c2cc1OC is 19.9 µM

Per the record, COc1cc2nc(C3CCC3)nc(N3CCN(c4ccccc4)CC3)c2cc1OC has EC50 of > 40 µM (inactive)

The measured EC50 associated with CC(C)C[C@H](NC(=O)c1nc(-c2ccncc2)c(-c2ccccc2)s1)C(=O)O reads > 40 µM (inactive)

What the record says about Fc1ccc(-n2ncc3c(N4CCN(c5ccccc5)CC4)ncnc32)cc1 : EC50 is > 40 µM (inactive)

Summary for this compound, COc1cc2c3nnc(-c4ccc(Cl)cc4)c-3cn(Cc3ccc(F)cc3)c2cc1OC : EC50 is 7.78 µM
